System: CCRF-CEM
experimentNotes: NCI tumour cell line growth inhibition, 48 h
Calls of active or inactive are those of the source. Rule as the data show it: active = GI50 up to about 1.1 µM and inactive = higher.
Outcome codes: active, inactive

In [3]: df
Out[3]:
                                    compound  classassignment
 0   O=C1C(Cl)=C(OCCCCl)C(=O)c2c(O)ccc(O)c21           active
 1         CC1=C(C)CC2(SC1)C(=O)c1ccccc1C2=O         inactive
 2  CCOc1cc(-c2nc3ccccn3c2/N=C/c2cc([N+](=O)[O-])cc([N+](=O)[O-])c2O)ccc1O         inactive
 3  C[N+](C)(C)CC(=O)N/N=C/c1oc(-c2c(O)ccc3ccccc23)c(-c2c(O)ccc3ccccc23)c1[N+](=O)[O-]         inactive
 4  BrC1=CC=C2NCCCCCC/N=C3\C=CC(Br)=CC=C3NCCCCCC/N=C\2C=C1         inactive
 5  O=C1C2CCCCC2C(=O)N1n1c(Cc2ccccc2)n[nH]c1=O (configuration not stated)         inactive
 6        CC(=O)NC1=CC(=O)c2cc(C)cc(O)c2C1=O         inactive
 7   Cc1ccc(/C=C2\NC(=S)N(CN3CCCCC3)C2=O)cc1         inactive
 8  O=C(O)C1CCc2nnc(-c3ccccc3)n21 (configuration not stated)         inactive
 9          CCOc1ccc(/N=C/c2ccc3ccccc3n2)cc1         inactive
10  CCOC(=O)c1cc(-c2ccc([N+](=O)[O-])cc2)c([N+](=O)[O-])[nH]1         inactive
11  CC[C@]1(Cc2ccc(OC)c(OC)c2)C=[N+]([O-])O[C@H](OC2CCCC2(c2ccccc2)c2ccccc2)[C@@H]1OC(C)=O (some centres not stated)         inactive
12  CC(=O)NC(CCCCNC(=O)N(CCCl)N=O)C(=O)NCc1ccccc1 (configuration not stated)         inactive
13  CN1C2(c3ccccc3)C(C(=O)c3ccccc3)=C(C(=O)c3ccccc3)C1(c1ccccc1)c1c(-c3ccccc3)sc(-c3ccccc3)c12         inactive
14  CC(C(=O)NCCNC(=O)CCCC(=O)N(C)O)C(=O)NCCNC(=O)CCCC(=O)N(C)O         inactive
15                 N#CC(=S)Nc1ccc(Cl)c(Cl)c1         inactive
16       O=C(c1ccco1)N1CCN(C(=O)c2ccco2)C1=S         inactive
17  O=C1/C(=C\c2cccc(Oc3ccccc3)c2)SC(c2ccccc2)N1c1ccccc1Cl (configuration not stated)         inactive
18  COC(=O)/C=C1\C(CO[Si](C)(C)C(C)(C)C)OC(n2cc(C)c(=O)n(C)c2=O)C1O[Si](C)(C)C(C)(C)C (configuration not stated)         inactive
19  Cn1nc(-c2ccccc2NC(=O)C(F)(F)F)c(=O)n(C)c1=S         inactive
20  CN(C)c1ccc(C2CC(=O)CC(c3ccc(N(C)C)cc3)C23C(=O)NC(=O)NC3=O)cc1 (configuration not stated)         inactive
21                 COc1cccc(C=C(C#N)C#N)c1OC         inactive

----------
Tested on: OVCAR-4
experimentNotes: NCI tumour cell line growth inhibition, 48 h
The source made the active and inactive calls. Cut-off read from the data, not from the text of the source: active = GI50 up to about 1.1 µM and inactive = higher.
Outcome codes: active, inactive

                                    molecule  classassignment
 0  Cc1nc2ccccc2c(=O)n1NC(=O)c1ccccc1[N+](=O)[O-]         inactive
 1  NS(=O)(=O)c1ccc(Nc2c3ccccc3nc3c(C(=O)NC(CO)(CO)CO)cccc23)cc1           active
 2            Cc1cccc2nc3cc(O)cc(O)c3c(O)c12         inactive
 3  Nc1nc2c(-c3ccc([N+](=O)[O-])cc3)nnn2c2ccccc12         inactive
 4  COC(=O)C12OCC34C(CC5C(C)C6=CC(=O)OC6=CC5(C)C3C(O)C1O)OC(=O)C(OC(C)=O)C24 (stereo not given)         inactive
 5    N#CC1=C(O)NC(O)=C(C#N)C1c1c(Cl)cccc1Cl         inactive
 6        CSc1nc(Nc2ccccc2Cl)c2c(N)nn(C)c2n1         inactive
 7  CCOc1cc(-c2nc3ccccn3c2/N=C/c2cc([N+](=O)[O-])cc([N+](=O)[O-])c2O)ccc1O         inactive
 8  CC(=O)OC1C(COC(=O)c2ccccc2)OC(Nc2ncc(-c3ccc(Br)cc3)s2)C(OC(=O)c2ccccc2)C1OC(=O)c1ccccc1 (stereo not given)         inactive
 9                    Nc1ccccc1Sc1ccc(Cl)cc1         inactive
10  CC(C)CC(N)C(=O)NC(CNC(CCC(N)=O)C(=O)NC(CC(C)C)C(=O)NC(CC(C)C)C(=O)O)Cc1ccc2ccccc2c1 (stereo not given)         inactive
11             Cc1c(C(=O)O)n(C)c(=O)n(C)c1=O         inactive
12  COC(=O)CCC(=O)N1C/C(=C\c2ccccc2)C(=O)/C(=C/c2ccccc2)C1         inactive
13  Cc1c(Cl)c(=O)oc2cc(OCC(=O)c3ccccc3)ccc12         inactive
14  COc1cc2c(oc(=O)c3cc(C)cc(OC)c32)c2c(C3OC(C)C(O)C(C)(O)C3O)ccc(O)c12 (stereo not given)           active
15  Cc1ccc(S(=O)(=O)N(C=O)N=C2CCN(Cc3ccccc3)CC2)cc1         inactive
16  CC(C)(C)c1cc(/C=C/C(=O)CC(=O)/C=C/c2cc(C(C)(C)C)c(O)c(C(C)(C)C)c2)cc(C(C)(C)C)c1O         inactive
17  O=C(O)C1C2C=CC(O2)C1C(=O)NCc1ccccn1 (stereo not given)         inactive
18  C/C=C/COc1cc(NC(=S)OC(C)C)ccc1Cl.C/C=C\COc1cc(NC(=S)OC(C)C)ccc1Cl         inactive
19              O=S(O)CCCCSSCCCCSSCCCCS(=O)O         inactive

----------
Test system: LOX IMVI
experimentNotes: NCI tumour cell line growth inhibition, 48 h
The source made the active and inactive calls. Rule as the data show it: active = GI50 up to about 1.1 µM and inactive = higher.
Outcome codes: yes (1) (active), no (0) (inactive)

>>> df
                                    molecule  classassignment
 0  COc1ccc(/C=C\c2cc(OC)c(OC)c(OC)c2)cc1OC(=O)CC(N)C(=O)O (stereo not given)          yes (1)
 1         NC(=O)Nc1c(Cl)cc(S(N)(=O)=O)cc1Cl           no (0)
 2  CCSc1[nH]c(NC(=S)NC(=O)c2ccccc2Cl)c(C(N)=O)c1C(N)=O           no (0)
 3  O=C(CSCC(=O)N/N=C\c1cc(Br)cc(Br)c1O)N/N=C\c1cc(Br)cc(Br)c1O           no (0)
 4  O=C1Cc2c(-c3cccs3)cc(-c3ccccc3)nc2-c2ccccc2N1           no (0)
 5  CSc1nc(NC2OC(COC(C)=O)C(OC(C)=O)C(OC(C)=O)C2OC(C)=O)c2c(OC(C)=O)c(C)c(=O)oc2n1 (stereo not given)           no (0)
 6  O=C1/C(=C\c2cccc(Oc3ccccc3)c2)SC(c2ccccc2)N1c1ccccc1Cl (stereo not given)           no (0)
 7  CN(C)CCOc1ccc2c(c1)C/C(=C/c1ncc([N+](=O)[O-])n1C)C2=O           no (0)
 8      O=[N+]([O-])c1ccc(-c2cnc3ccccn23)cc1           no (0)
 9  CS(=O)(=O)CC1=Nc2nnc(CCCCCCCc3nnc4n3C(=O)C(CS(C)(=O)=O)=N4)n2C1=O           no (0)
10  Nc1ccc(N(S(=O)(=O)c2ccccc2)S(=O)(=O)c2ccccc2)c(Cl)c1           no (0)
11  C=C1C(=O)C([Si](C)(C)C)=C2C=C(C)C3(CC3)C12C (stereo not given)           no (0)
12             c1ccc2c(c1)NCc1cc3ccccc3nc1O2           no (0)
13  CC(C)(C)c1cc(/C=C/C(=O)CC(=O)/C=C/c2cc(C(C)(C)C)c(O)c(C(C)(C)C)c2)cc(C(C)(C)C)c1O           no (0)
14  O=C1CCCC[C@H]1C(O)CC1CC(=O)N(c2ccccc2)C(=O)C1 (stereo not given in full)           no (0)
15  COc1ccc(Cl)cc1NC(=O)c1cccc([N+](=O)[O-])c1O           no (0)
16          Nc1ncnc2nc(N3CCN(CCO)CC3)[nH]c12           no (0)
17  CC(=O)OC/C=C/[C@H](O[Si](C)(C)C(C)(C)C)[C@@H](O)/C=C/COC(C)=O           no (0)
18            Cc1cccc2nc3cc(O)cc(O)c3c(O)c12           no (0)
19  Cc1ccc(NC(=O)/C(=N/N(C)C)C(C2OC(=O)c3ccccc32)[N+](=O)[O-])cc1 (stereo not given)           no (0)
